Answer each item with its documented Kd (parent)/Kd (mut).
- Target or test system: T1, c-erbB-2 ECD with a Ser-Gly-His6 C-terminal fusion (UniProt P04626 23-652)
- T1 construct: extracellular domain; Expressed from CHO cells, IMAC purified; coupled to a CM5 chip, coated on plates, or biotinylated with NHS-LC-biotin; also called c-erbB-2 extracellular domain; biotinylated c-erbB-2 ECD
- Protocol summary: SPR BIAcore
# answer = number (no unit)

[ask] What does the data say about its Kd (parent)/Kd (mut)? Entry: C6-B1D6 (scFv, Combined B1 and D6 mutations on C6ML3-9) scFv: QVQLLQSGAELKKPGESLKISCKGSGYSFTSYWIAWVRQMPGKGLEYMGLIYPGDSDTKYSPSFQGQVTISVDKSVSTAYLQWSSLKPSDSAVYFCARHDVGYCTDRTCAKWPEWMYPWGQGTLVTVSSGGGGSGGGGSGGGGSQSVLTQPPSVSAAPGQKVTISCSGSSSNIGNNYVSWYQQLPGTAPKLLIYGHTNRPAGVPDRFSGSKSGTSASLAISGFRSEDEADYYCASWDYTLSGWVFGGGTKLTVLG
[reply] 3.8

[ask] Again, but for C6-B47D3 (scFv, Combined B47 and D3 mutations on C6ML3-9) scFv: QVQLLQSGAELKKPGESLKISCKGSGYSFTSYWIAWVRQMPGKGLEYMGLIYPGDSDTKYSPSFQGQVTISVDKSVSTAYLQWSSLKPSDSAVYFCARHDVGYCTDRSCAKWPEWLDNWGQGTLVTVSSGGGGSGGGGSGGGGSQSVLTQPPSVSAAPGQKVTISCSGSSSNIGNNYVSWYQQLPGTAPKLLIYGHTNRPAGVPDRFSGSKSGTSASLAISGFRSEDEADYYCASWDYTLSGWVFGGGTKLTVLG
[reply] 2.3

Each recorded value in this set is attributed to patent US6512097.
